Exercise: for every item that follows, state its recorded solubility.
- Assay Comment: Physicochemical properties (pKa, logP, solubility)
- Particulars: water solubility; read-out: Solubility
Write the answer as a number in µg/mL, unit excluded.

Q: Fill in: solubility of `O=C(/C=C/c1ccc(O)c(O)c1)c1ccc(Cl)cc1` is ___
Ans: 28

Q: Same read-out for O=C(Oc1cc(O)ccc1C(=O)/C=C/c1ccc(O)c(O)c1)c1ccccc1 [compound 14a] ?
Ans: 136

Q: Same read-out for O=C(/C=C/c1ccc(O)c(O)c1)c1ccc(O)cc1O [compound 1, reference compound] ?
Ans: 21

---

- Assay Comment: Pharmacokinetic analysis in mice after I.V. and oral administration
- Assay type: in vivo, mouse
- Particulars: mouse, plasma, po; P.O, 20 mg/Kg, male CD-1 mice; read-out: Cmax (maximum plasma concentration)
Endpoint Name: Cmax (ng/mL)
Write the answer as a number in ng/mL, unit excluded.

Q: Fill in: Cmax of O=C(/C=C/c1ccc(O)c(O)c1)c1ccc(O)cc1O [compound 1, reference compound] is ___
Ans: 43

Q: Same read-out for O=C(Oc1cc(O)ccc1C(=O)/C=C/c1ccc(O)c(O)c1)c1ccccc1 [compound 14a] ?
Ans: 83

---

Exercise: for every item that follows, state its recorded melting point.
Write the answer as a number in °C, unit excluded.

Q: Fill in: melting point of COc1ccc(C(=O)Oc2cc(O)ccc2C(=O)/C=C/c2ccc(O)c(O)c2)cc1 [compound 14c] is ___
Ans: 161.1

Q: Same read-out for `Cc1ccc(C(=O)/C=C/c2ccc(O)c(O)c2)cc1` ?
Ans: 190.9

Q: Same read-out for `CC(C)Oc1cc(O)ccc1C(=O)/C=C/c1ccc(O)c(O)c1` ?
Ans: 80.4

Q: Same read-out for O=C(Oc1cc(O)ccc1C(=O)/C=C/c1ccc(O)c(O)c1)c1ccccc1 [compound 14a] ?
Ans: 204.9

Q: Same read-out for O=C(Oc1cc(O)ccc1C(=O)/C=C/c1ccc(O)c(O)c1)c1ccc(Cl)cc1 [compound 14d] ?
Ans: 102.8

Q: Same read-out for `Cc1cc(O)ccc1C(=O)/C=C/c1ccc(O)c(O)c1` ?
Ans: 208.2

Q: Same read-out for Cc1ccc(C(=O)Oc2cc(O)ccc2C(=O)/C=C/c2ccc(O)c(O)c2)cc1 [compound 14b] ?
Ans: 185.7

Q: Same read-out for `O=C(/C=C/c1ccc(O)c(O)c1)c1ccc(O)cc1F` ?
Ans: 207.8

Q: Same read-out for `O=C(Oc1ccc(C(=O)/C=C/c2ccc(OC(=O)c3ccccc3)c(OC(=O)c3ccccc3)c2)c(OC(=O)c2ccccc2)c1)c1ccccc1` ?
Ans: 36.7

Q: Same read-out for `COc1ccc(/C=C/C(=O)c2ccc(O)cc2O)cc1O` ?
Ans: 206.4

Q: Same read-out for `O=C(/C=C/c1ccc(F)c(O)c1)c1ccc(O)cc1O` ?
Ans: 252.4

Q: Same read-out for `COc1ccc(C(=O)/C=C/c2ccc(O)c(O)c2)c(OC)c1` ?
Ans: 162.9

Q: Same read-out for `CC(=O)Oc1ccc(C(=O)/C=C/c2ccc(OC(C)=O)c(OC(C)=O)c2)c(OC(C)=O)c1` ?
Ans: 131.3

---

- Assay Comment: Physicochemical properties (pKa, logP, solubility)
- Particulars: water; read-out: water solubility
Endpoint Name: solubility

Q: Fill in: solubility of O=C(/C=C/c1ccc(O)c(O)c1)c1ccc(O)cc1O [compound 1, reference compound] is ___
Ans: 79 µM
